# System: SiHa cells (HPV-16 positive cervical tumor line)
# Procedure details: Cell proliferation (crystal violet), dose-response, SiHa
# Run parameters: Homo sapiens, 72 h
pIC50: −log10 of the molar value.
// label = Met if pIC50 is not less than 5, otherwise Not met

Reference set (3 entries):
- Compound: "O=C1C=C(NC(Cc2ccc(O)cc2)C(=O)O)C(=O)c2ccccc21 (stereo not drawn)"
  Answer label: "Not met"
- Compound: "O=C1C(Cl)=C(NC(Cc2c[nH]c3ccccc23)C(=O)O)C(=O)c2ccccc21 (stereo not drawn)"
  Answer label: "Met"
- Compound: "O=C1C(Cl)=C(NC(Cc2ccc(O)cc2)C(=O)O)C(=O)c2ccccc21 (stereo not drawn)"
  Answer label: "Met"

Ask: Threshold query (pIC50 >= 5) on O=C1C=C(NC(Cc2c[nH]c3ccccc23)C(=O)O)C(=O)c2ccccc21 (stereo not drawn)
Reply: Not met

Ask: Field entry: CC(C)C(NC1=CC(=O)c2ccccc2C1=O)C(=O)O (stereo not drawn)
Reply: Not met

----------
# Tested on: CaLo cells (HPV-18 positive cervical tumor line)
# Procedure details: Cell proliferation (crystal violet), dose-response, CaLo
# Run parameters: 72 h
Property label: pIC50
Give bare numbers, as −log10 of the molar value.

- Compound: "O=C1C=C(NC(Cc2ccc(O)cc2)C(=O)O)C(=O)c2ccccc21 (stereo not drawn)"
  pIC50: 4.09
- Compound: "O=C1C(Cl)=C(NC(Cc2ccc(O)cc2)C(=O)O)C(=O)c2ccccc21 (stereo not drawn)"
  pIC50: 5.15
- Compound: "CC(C)C(NC1=C(Cl)C(=O)c2ccccc2C1=O)C(=O)O (stereo not drawn)"
  pIC50: 5.54
- Compound: "O=C1C=C(NC(Cc2c[nH]c3ccccc23)C(=O)O)C(=O)c2ccccc21 (stereo not drawn)"
  pIC50: 4.60
- Compound: "CC(C)C(NC1=CC(=O)c2ccccc2C1=O)C(=O)O (stereo not drawn)"
  pIC50: 4.24

Next compound, please.
Ask: # query: pIC50 | item O=C1C(Cl)=C(NC(Cc2c[nH]c3ccccc23)C(=O)O)C(=O)c2ccccc21 (stereo not drawn) | system: CaLo cells (HPV-18 positive cervical tumor line)
Reply: 5.57

----------
# Procedure details: Cyclic voltammetry in 0.1 M TBABF4/DMSO
# Run parameters: anodic peak potential of redox reaction; TBABF4 0.1 M/DMSO, 100 mV/s, vs Ag/Ag+ pseudo-reference
Property label: Epa (V)
Numbers only, in V.

Known Epa results, listed for orientation:
- Compound: "CC(C)C(NC1=CC(=O)c2ccccc2C1=O)C(=O)O (stereo not drawn)"
  Units symbol: "V"
  Epa: "−1.16"
- Compound: "O=C1C=C(NC(Cc2c[nH]c3ccccc23)C(=O)O)C(=O)c2ccccc21 (stereo not drawn)"
  Units symbol: "V"
  Epa: "−1.19"
- Compound: "O=C1C=C(NC(Cc2ccc(O)cc2)C(=O)O)C(=O)c2ccccc21 (stereo not drawn)"
  Units symbol: "V"
  Epa: "−1.15"
- Compound: "O=C1C(Cl)=C(NC(Cc2c[nH]c3ccccc23)C(=O)O)C(=O)c2ccccc21 (stereo not drawn)"
  Units symbol: "V"
  Epa: "−1.05"
- Compound: "CC(C)C(NC1=C(Cl)C(=O)c2ccccc2C1=O)C(=O)O (stereo not drawn)"
  Units symbol: "V"
  Epa: "−1.05"

Shifting focus to the compound that follows.
Ask: Quick check: Epa of O=C1C(Cl)=C(NC(Cc2ccc(O)cc2)C(=O)O)C(=O)c2ccccc21 (stereo not drawn) ?
Reply: −1.04

----------
# Procedure details: Cyclic voltammetry in 0.1 M TBABF4/DMSO
# Run parameters: potential peak separation, ΔEp = Epc − Epa; TBABF4 0.1 M/DMSO, 100 mV/s
Property label: ΔEp (V)
Give bare numbers, in V.

Worked set:
- Molecule: "O=C1C(Cl)=C(NC(Cc2ccc(O)cc2)C(=O)O)C(=O)c2ccccc21 (stereo not drawn)"
  ΔEp / V: 0.11
- Molecule: "O=C1C=C(NC(Cc2ccc(O)cc2)C(=O)O)C(=O)c2ccccc21 (stereo not drawn)"
  ΔEp / V: 0.13
- Molecule: "O=C1C=C(NC(Cc2c[nH]c3ccccc23)C(=O)O)C(=O)c2ccccc21 (stereo not drawn)"
  ΔEp / V: 0.11
- Molecule: "O=C1C(Cl)=C(NC(Cc2c[nH]c3ccccc23)C(=O)O)C(=O)c2ccccc21 (stereo not drawn)"
  ΔEp / V: 0.12
- Molecule: "CC(C)C(NC1=C(Cl)C(=O)c2ccccc2C1=O)C(=O)O (stereo not drawn)"
  ΔEp / V: 0.14

Next, consider the following molecule.
Ask: Which ΔEp reading was recorded for the molecule CC(C)C(NC1=CC(=O)c2ccccc2C1=O)C(=O)O (stereo not drawn) ?
Reply: 0.12

----------
# Procedure details: Cyclic voltammetry in 0.1 M TBABF4/DMSO
# Run parameters: anodic peak current density; TBABF4 0.1 M/DMSO, 100 mV/s
Property label: ipa
For clarity, give the value followed by its unit.

Consider the reported ipa for these compounds:
- Compound: "CC(C)C(NC1=C(Cl)C(=O)c2ccccc2C1=O)C(=O)O (stereo not drawn) [Compound 4b]"
  ipa: "0.21 mA cm^−2"
- Compound: "O=C1C(Cl)=C(NC(Cc2ccc(O)cc2)C(=O)O)C(=O)c2ccccc21 (stereo not drawn) [Compound 4a]"
  ipa: "0.22 mA cm^−2"
- Compound: "O=C1C=C(NC(Cc2c[nH]c3ccccc23)C(=O)O)C(=O)c2ccccc21 (stereo not drawn) [Compound 3c]"
  ipa: "0.26 mA cm^−2"
- Compound: "CC(C)C(NC1=CC(=O)c2ccccc2C1=O)C(=O)O (stereo not drawn) [Compound 3b]"
  ipa: "0.28 mA cm^−2"
- Compound: "O=C1C(Cl)=C(NC(Cc2c[nH]c3ccccc23)C(=O)O)C(=O)c2ccccc21 (stereo not drawn) [Compound 4c]"
  ipa: "0.23 mA cm^−2"

Below: the item to evaluate.
Ask: Item under review: O=C1C=C(NC(Cc2ccc(O)cc2)C(=O)O)C(=O)c2ccccc21 (stereo not drawn) [Compound 3a] . Reported ipa?
Reply: 0.28 mA cm^−2

----------
Would you mind telling me the reported irreversible oxidation potential peak (positive potential region) of each entry?
# Procedure details: Cyclic voltammetry in 0.1 M TBABF4/DMSO
# Run parameters: Figure 2, vs Ag/Ag+, 100 mV s^−1
Answers are plain numbers, in V.

Observe how each entry below is paired with its result.
- Compound: "O=C1C(Cl)=C(NC(Cc2c[nH]c3ccccc23)C(=O)O)C(=O)c2ccccc21 (stereo not drawn)"
  Units symbol: "V"
  Reported value: 0.46
- Compound: "CC(C)C(NC1=CC(=O)c2ccccc2C1=O)C(=O)O (stereo not drawn)"
  Units symbol: "V"
  Reported value: 0.60
- Compound: "O=C1C=C(NC(Cc2c[nH]c3ccccc23)C(=O)O)C(=O)c2ccccc21 (stereo not drawn)"
  Units symbol: "V"
  Reported value: 0.45

Ask: Param item = CC(C)C(NC1=C(Cl)C(=O)c2ccccc2C1=O)C(=O)O (stereo not drawn) ; retrieve measured irreversible oxidation potential peak (positive potential region).
Reply: 0.57

----------
# Procedure details: Cyclic voltammetry in 0.1 M TBABF4/DMSO
# Run parameters: cathodic peak potential of redox reaction; TBABF4 0.1 M/DMSO, 100 mV/s, vs Ag/Ag+ pseudo-reference
Record form. Attribute: Epc. Fill in for each entry.
Give bare numbers, in V.

- Compound: "O=C1C(Cl)=C(NC(Cc2c[nH]c3ccccc23)C(=O)O)C(=O)c2ccccc21 (stereo not drawn)"
  Property label: "Epc"
  Reported value: "−1.17"
- Compound: "O=C1C=C(NC(Cc2ccc(O)cc2)C(=O)O)C(=O)c2ccccc21 (stereo not drawn)"
  Property label: "Epc"
  Reported value: "−1.27"
- Compound: "O=C1C(Cl)=C(NC(Cc2ccc(O)cc2)C(=O)O)C(=O)c2ccccc21 (stereo not drawn)"
  Property label: "Epc"
  Reported value: "−1.15"

For every record below, what is its Epc?
1. CC(C)C(NC1=C(Cl)C(=O)c2ccccc2C1=O)C(=O)O (stereo not drawn)
2. O=C1C=C(NC(Cc2c[nH]c3ccccc23)C(=O)O)C(=O)c2ccccc21 (stereo not drawn)

Reply:
["−1.19", "−1.30"]

Ask: I have this compound here, CC(C)C(NC1=CC(=O)c2ccccc2C1=O)C(=O)O (stereo not drawn) , and I need its recorded Epc.
Reply: −1.27

----------
Kindly supply the reported |ipa/ipc| values for the records listed here.
# Procedure details: Cyclic voltammetry in 0.1 M TBABF4/DMSO
# Run parameters: ratio of anodic to cathodic peak current (reversibility); TBABF4 0.1 M/DMSO, 100 mV/s
One number for each entry.

Use the examples below as a reference point.
- Molecule: "CC(C)C(NC1=CC(=O)c2ccccc2C1=O)C(=O)O (stereo not drawn)"
  Reported value: 0.95
- Molecule: "O=C1C=C(NC(Cc2c[nH]c3ccccc23)C(=O)O)C(=O)c2ccccc21 (stereo not drawn)"
  Reported value: 0.95
- Molecule: "O=C1C(Cl)=C(NC(Cc2c[nH]c3ccccc23)C(=O)O)C(=O)c2ccccc21 (stereo not drawn)"
  Reported value: 0.85
- Molecule: "O=C1C=C(NC(Cc2ccc(O)cc2)C(=O)O)C(=O)c2ccccc21 (stereo not drawn)"
  Reported value: 0.95
- Molecule: "O=C1C(Cl)=C(NC(Cc2ccc(O)cc2)C(=O)O)C(=O)c2ccccc21 (stereo not drawn)"
  Reported value: 0.92

Now look at this one.
Ask: Returns the measured |ipa/ipc| for the input molecule. Input: CC(C)C(NC1=C(Cl)C(=O)c2ccccc2C1=O)C(=O)O (stereo not drawn)
Reply: 0.83
